Each recorded value in this set is attributed to ChEMBL document CHEMBL4396869.

- testMethodNotes: Stability in human hepatocytes assessed as parent compound remaining measured after 4 hrs by LC-UV/MS/MS analysis
- Assay type: ADME, cell-based, Hepatocyte
- statedConditions: read-out: Stability
measurementLabel: remaining at 4 h
Write your answer as a measured quantity: the number, then the unit.

Task: Would you kindly share the measured remaining at 4 h for "CCc1cc(Cc2ccc(CC(N)=O)cc2)nc(-c2cccc(Cl)c2)n1" ?
Result: 93.2%

* * *

- testMethodNotes: Protein binding in mouse plasma
- Assay type: ADME, cell-free
- statedConditions: read-out: PPB
In this section, each of the compounds is paired with its reported fraction unbound.

Before answering, review these 2 worked examples.
INSERT INTO assay_data (compound, recordedmeasurement) VALUES
  ('O=C(O)Cc1ccc(Cc2cc(-c3cccc(Cl)c3)nc(C(F)(F)F)c2)cc1 [ZATOLMILAST]', '0.002 to 0.005'),
  ('CCc1cc(Cc2ccc(CC(=O)NCCO)cc2)nc(-c2cccc(Cl)c2)n1', '0.002 to 0.004');

Task: Would you kindly share the measured fraction unbound for "CCc1cc(Cc2ccc(CC(N)=O)cc2)nc(-c2cccc(Cl)c2)n1" ?
Result: 0.002 to 0.005

* * *

- testMethodNotes: Therapeutic index, ratio of compound effect for induction of emesis in ICR mouse assessed as reduction in ketamine/xylazine-induced duration of anesthesia at 10 to 30 mg/kg, po to compound effect for memory enhancement effect in ICR mouse assessed as improvement in novel object discrimination at 1 to 3 mg/kg, po
- Assay type: toxicity, organism-based
- statedConditions: in vivo
measurementLabel: selectivity ratio
# print the numeric value only

Task: Would you kindly share the measured selectivity ratio for "CCc1cc(Cc2ccc(CC(N)=O)cc2)nc(-c2cccc(Cl)c2)n1" ?
Result: 10

* * *

- testMethodNotes: Stability in mouse liver microsomes assessed as parent compound remaining at 1 uM measured after 30 mins by LC-MS/MS analysis
- Format: ADME, Microsome
- statedConditions: read-out: Stability
measurementLabel: remaining at 0.5 h, 1 µM

Before answering, review these 2 worked examples.
INSERT INTO results (compound, measurementlabel, recordedmeasurement) VALUES
  ('CCc1cc(Cc2ccc(CC(N)=O)cc2)nc(-c2cccc(Cl)c2)n1', 'remaining at 0.5 h, 1 µM', '54 to 90%'),
  ('CCc1cc(Cc2ccc(CC(=O)NCCO)cc2)nc(-c2cccc(Cl)c2)n1', 'remaining at 0.5 h, 1 µM', '36%');

Pending compound:
Task: Would you kindly share the measured remaining at 0.5 h, 1 µM for O=C(O)Cc1ccc(Cc2cc(-c3cccc(Cl)c3)nc(C(F)(F)F)c2)cc1 [ZATOLMILAST] ?
Result: 88 to 100%

* * *

In this section, each of the compounds is paired with its reported log10(IC50).
- tgt: 3',5'-cyclic-AMP phosphodiesterase 4B (Homo sapiens, UniProt Q07343, S133D)
- Sequence (Q07343 whole entry S133D): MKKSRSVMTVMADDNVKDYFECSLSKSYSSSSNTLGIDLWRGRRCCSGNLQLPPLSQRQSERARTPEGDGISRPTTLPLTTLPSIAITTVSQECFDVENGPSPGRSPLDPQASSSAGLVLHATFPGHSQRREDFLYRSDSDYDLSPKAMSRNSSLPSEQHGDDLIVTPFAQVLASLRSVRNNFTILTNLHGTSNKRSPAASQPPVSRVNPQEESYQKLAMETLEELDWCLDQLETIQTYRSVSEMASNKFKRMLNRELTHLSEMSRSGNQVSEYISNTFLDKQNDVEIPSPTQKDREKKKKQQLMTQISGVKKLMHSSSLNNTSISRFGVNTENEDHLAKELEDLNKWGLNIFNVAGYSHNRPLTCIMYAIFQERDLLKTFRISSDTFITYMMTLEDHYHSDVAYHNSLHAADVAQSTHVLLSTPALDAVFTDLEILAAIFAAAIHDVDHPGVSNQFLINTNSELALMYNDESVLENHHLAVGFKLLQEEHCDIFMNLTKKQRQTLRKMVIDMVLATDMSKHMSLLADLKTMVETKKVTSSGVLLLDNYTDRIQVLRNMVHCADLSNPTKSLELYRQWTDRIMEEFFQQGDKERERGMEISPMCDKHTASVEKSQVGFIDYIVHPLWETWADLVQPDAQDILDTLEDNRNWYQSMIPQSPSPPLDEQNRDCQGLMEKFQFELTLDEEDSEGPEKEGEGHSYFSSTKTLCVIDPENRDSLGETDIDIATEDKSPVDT
- testMethodNotes: Inhibition of recombinant human His6-tagged PDE4B1 UCR1 S133D mutant expressed in baculovirus infected Sf9 insect cells using cAMP as substrate preincubated for 5 to 10 mins followed by substrate addition and measured for 10 mins by yeast myokinase/pyruvate kinase/lactate dehydrogenase-coupled fluorescence assay
All values: base-10 log of IC50 in nM.

Before answering, review these 6 worked examples.
INSERT INTO assay_data (compound, tgt, measurementlabel, recordedmeasurement) VALUES
  ('CCc1cc(Nc2ccc(CC(N)=O)cc2)nc(-c2cccc(Cl)c2)n1', '3'',5''-cyclic-AMP phosphodiesterase 4B (Homo sapiens, UniProt Q07343, S133D)', 'log10(IC50)', 1.63),
  ('CCc1nc(Nc2ccc(CC(=O)O)cc2)nc(-c2cccc(Cl)c2)n1', '3'',5''-cyclic-AMP phosphodiesterase 4B (Homo sapiens, UniProt Q07343, S133D)', 'log10(IC50)', 2.89),
  ('CCc1cc(Oc2ccc(CCO)cc2)nc(-c2cccc(Cl)c2)n1', '3'',5''-cyclic-AMP phosphodiesterase 4B (Homo sapiens, UniProt Q07343, S133D)', 'log10(IC50)', 1.76),
  ('NC(=O)CCc1ccc(Nc2cc(-c3cccc(Cl)c3)nc3c2CCC3)cc1', '3'',5''-cyclic-AMP phosphodiesterase 4B (Homo sapiens, UniProt Q07343, S133D)', 'log10(IC50)', 2.22),
  ('CCc1nc(Nc2ccc(CC(N)=O)cc2)nc(-c2cccc(Cl)c2)n1', '3'',5''-cyclic-AMP phosphodiesterase 4B (Homo sapiens, UniProt Q07343, S133D)', 'log10(IC50)', 1.68),
  ('OCCc1ccc(Nc2cc(-c3cccc(Cl)c3)nc3c2CCC3)cc1', '3'',5''-cyclic-AMP phosphodiesterase 4B (Homo sapiens, UniProt Q07343, S133D)', 'log10(IC50)', 2.75);

Task: Would you kindly share the measured log10(IC50) for "CN(C)C(=O)Cc1ccc(Nc2cc(-c3cccc(Cl)c3)nc3c2CCC3)cc1" ?
Result: 2.55

Task: Entry "CNC(=O)Cc1ccc(Nc2cc(-c3cccc(Cl)c3)nc3c2CCC3)cc1" please
Result: 1.99

Task: Entry "CN(c1ccc(CC(N)=O)cc1)c1cc(-c2cccc(Cl)c2)nc2c1CCC2" please
Result: 3.52

Task: Entry "CCc1cc(Cc2ccc(CC(N)=O)cc2)nc(-c2cccc(Cl)c2)n1" please
Result: 2.35

Task: Entry "O=C(O)Cc1ccc(Nc2cc(-c3cccc(Cl)c3)nc3c2CCC3)cc1" please
Result: 3.21

Task: Entry "CCc1cc(Cc2ccc(CC(=O)NCCO)cc2)nc(-c2cccc(Cl)c2)n1" please
Result: 2.11

Task: Entry "CCc1nc(Nc2ccc(CCO)cc2)nc(-c2cccc(Cl)c2)n1" please
Result: 1.38

Task: Entry "CCc1nc(Nc2ccc(C(=O)O)cc2)nc(-c2cccc(Cl)c2)n1" please
Result: 2.38

Task: Entry "CCc1nc(Nc2ccc(CCCO)cc2)nc(-c2cccc(Cl)c2)n1" please
Result: 1.04

Task: Entry "NC(=O)Cc1ccc(S(=O)(=O)c2cc(-c3cccc(Cl)c3)nc3c2CCC3)cc1" please
Result: 3.58

Task: Entry "CCc1cc(Nc2ccc(CCO)cc2)nc(-c2cccc(Cl)c2)n1" please
Result: 1.76

Task: Entry CCc1nc(Nc2ccc(C(C)C(=O)O)cc2)nc(-c2cccc(Cl)c2)n1 (stereo not given) please
Result: 3.04

Task: Entry "CCc1nc(Nc2ccc(C(N)=O)cc2)nc(-c2cccc(Cl)c2)n1" please
Result: 1.64

Task: Entry "NC(=O)Cc1ccc(Nc2cc(-c3cccc(Cl)c3)nc3c2CCC3)cc1" please
Result: 2.13

Task: Entry "NC(=O)Cc1ccc(Cc2cc(-c3cccc(Cl)c3)nc3c2CCC3)cc1" please
Result: 2.14

Task: Entry "OCCc1cccc(Nc2cc(-c3cccc(Cl)c3)nc3c2CCC3)c1" please
Result: 3.15

Task: Entry "CCc1nc(Nc2ccc(CO)cc2)nc(-c2cccc(Cl)c2)n1" please
Result: 2.02

Task: Entry "CCc1cc(Oc2ccc(CC(N)=O)cc2)nc(-c2cccc(Cl)c2)n1" please
Result: 2.98

Task: Entry "CCc1cc(Cc2ccc(CCO)cc2)nc(-c2cccc(Cl)c2)n1" please
Result: 2.77

* * *

- testMethodNotes: Stability in Wistar rat hepatocytes assessed as parent compound remaining measured after 4 hrs by LC-UV/MS/MS analysis
- Type: ADME, cell-based, Hepatocyte
- statedConditions: read-out: Stability
measurementLabel: remaining at 4 h (%)
Enter your answer as a number in %; do not include the unit.

Task: Would you kindly share the measured remaining at 4 h for "CCc1cc(Cc2ccc(CC(N)=O)cc2)nc(-c2cccc(Cl)c2)n1" ?
Result: 66.8

* * *

- testMethodNotes: Stability in dog liver microsomes assessed as parent compound remaining at 1 uM measured after 30 mins by LC-MS/MS analysis
- Type: ADME, Canis lupus familiaris, Microsome
- statedConditions: read-out: Stability
In this section, each of the compounds is paired with its reported remaining at 0.5 h, 1 µM.

INSERT INTO measurements (compoundstructure, recordedmeasurement) VALUES
  ('CCc1cc(Cc2ccc(CC(N)=O)cc2)nc(-c2cccc(Cl)c2)n1', '54 to 90%');

Task: Would you kindly share the measured remaining at 0.5 h, 1 µM for "O=C(O)Cc1ccc(Cc2cc(-c3cccc(Cl)c3)nc(C(F)(F)F)c2)cc1" ?
Result: 88 to 100%

* * *

- tgt: Voltage-gated inwardly rectifying potassium channel KCNH2 (Homo sapiens, UniProt Q12809)
- Sequence (Q12809 whole entry): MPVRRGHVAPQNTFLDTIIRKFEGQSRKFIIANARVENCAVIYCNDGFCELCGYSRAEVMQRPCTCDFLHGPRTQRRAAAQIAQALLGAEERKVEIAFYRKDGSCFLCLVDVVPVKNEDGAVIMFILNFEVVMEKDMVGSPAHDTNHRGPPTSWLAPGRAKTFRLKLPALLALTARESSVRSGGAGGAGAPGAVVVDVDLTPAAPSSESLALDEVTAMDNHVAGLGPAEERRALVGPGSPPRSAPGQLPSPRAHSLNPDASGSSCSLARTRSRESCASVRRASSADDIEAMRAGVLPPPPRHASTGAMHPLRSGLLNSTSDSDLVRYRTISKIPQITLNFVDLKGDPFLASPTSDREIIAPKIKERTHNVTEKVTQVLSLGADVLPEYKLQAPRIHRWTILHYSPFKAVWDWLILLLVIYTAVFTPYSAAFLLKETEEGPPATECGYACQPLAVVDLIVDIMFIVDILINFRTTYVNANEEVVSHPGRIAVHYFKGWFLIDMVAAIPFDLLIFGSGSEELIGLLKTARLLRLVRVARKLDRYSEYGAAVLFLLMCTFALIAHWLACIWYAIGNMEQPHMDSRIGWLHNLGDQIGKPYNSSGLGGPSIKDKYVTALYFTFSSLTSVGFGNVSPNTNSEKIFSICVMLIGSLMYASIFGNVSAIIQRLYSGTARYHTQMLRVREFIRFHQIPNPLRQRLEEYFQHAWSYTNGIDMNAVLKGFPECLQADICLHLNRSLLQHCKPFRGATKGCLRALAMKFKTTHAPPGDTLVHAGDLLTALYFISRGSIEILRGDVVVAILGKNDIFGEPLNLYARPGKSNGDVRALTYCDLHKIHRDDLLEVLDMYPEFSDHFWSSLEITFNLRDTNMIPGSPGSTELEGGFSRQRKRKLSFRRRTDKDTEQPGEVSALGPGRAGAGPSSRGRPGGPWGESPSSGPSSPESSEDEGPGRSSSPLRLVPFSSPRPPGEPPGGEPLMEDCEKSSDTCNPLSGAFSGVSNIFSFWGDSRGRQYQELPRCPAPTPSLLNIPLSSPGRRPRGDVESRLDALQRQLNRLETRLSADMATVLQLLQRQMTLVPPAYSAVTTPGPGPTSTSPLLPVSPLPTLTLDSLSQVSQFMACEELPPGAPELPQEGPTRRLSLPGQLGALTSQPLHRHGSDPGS
pIC50: −log10 of the molar value.
measurementLabel: pIC50

Task: Would you kindly share the measured pIC50 for "O=C(O)Cc1ccc(Cc2cc(-c3cccc(Cl)c3)nc(C(F)(F)F)c2)cc1" ?
Result: < 5.00

* * *

- testMethodNotes: Half life in C57Bl6 mouse
- Format: ADME
- statedConditions: in vivo
measurementLabel: half-life

Task: Would you kindly share the measured half-life for "O=C(O)Cc1ccc(Cc2cc(-c3cccc(Cl)c3)nc(C(F)(F)F)c2)cc1" ?
Result: 10 to 12 h
